experiment: gradient 5% acetonitrile 3 min, to 50% in 2 min, to 85% in 15 min, held 3 min, 100 µL/min; conditions: column: Zorbax Extend-C18 2.1 x 50 mm; eluents: water / acetonitrile, 0.1% formic acid
Please provide measured RP-LC retention time for the entries that follow.
The figure you give is taken to be in s; do not add the unit.

O=C(c1cccs1)N1CCCC(OCc2nc(C3CC3)no2)C1 (stereo not given) has a reported RP-LC retention time of 786

`CCN1CCn2cc(S(=O)(=O)N3CCCc4ccccc43)cc2C1=O` has a reported RP-LC retention time of 800

`CC[C@H](C)Nc1c(C(=O)OC)c(=O)[nH]c2c(Cl)cccc12` has a reported RP-LC retention time of 783

CC(C)NC(=O)NCc1ccc2c(c1)N(C(=O)c1ccccc1)C(C)C2 (stereo not given) has a reported RP-LC retention time of 778

`Cc1sc2ccn(CC(C)C)c(=O)c2c1C(=O)NCc1ccc(F)cc1F` has a reported RP-LC retention time of 983

COC(=O)c1cc(S(=O)(=O)N2CCCC2C(=O)Nc2cccc3c2CCCC3)cn1C (stereo not given) has a reported RP-LC retention time of 1020

`CN(CC(=O)N1CCOCC1)c1nc(C2CC2)nc2c1CCC2` has a reported RP-LC retention time of 560

N#Cc1cc2c(OCC(O)CN3CCN(C(c4ccccc4)c4ccccc4)CC3)cccc2[nH]1 (stereo not given) has a reported RP-LC retention time of 819

`COc1cc2c(cc1CC=C(C)C)C(=O)C[C@@H](c1ccc(O)cc1)O2` has a reported RP-LC retention time of 1190

CC1CCC2(CC1)NC(=O)N(CC(=O)NCCCc1ccccc1)C2=O (stereo not given) has a reported RP-LC retention time of 832

`Cc1[nH]nc(-c2c(C)sc(C)c2S(=O)(=O)N2CCc3ccccc3C2)c1C` has a reported RP-LC retention time of 975

`CC(C)CCn1nc2ccc(S(=O)(=O)N3CCOCC3)cn2c1=O` has a reported RP-LC retention time of 801

`O=C(Cn1c(=O)c(CCC(=O)NC2CC2)nc2ccccc21)Nc1ccccc1Br` has a reported RP-LC retention time of 712

`O=S(=O)(Nc1ccccc1)c1cccc(-c2nc(-c3ccccc3)no2)c1` has a reported RP-LC retention time of 1210

`COc1cc(C(=O)Nc2nnc(SCc3nnc(-c4ccccc4C)o3)s2)cc(OC)c1OC` has a reported RP-LC retention time of 942

CC(CNC(=O)c1cc2n(n1)CC(C)(C(=O)NC1CCCCC1)N(C)C2=O)c1ccccc1 (stereo not given) has a reported RP-LC retention time of 795

`CC(C)COc1cc(=O)n2c(c1C(=O)NC1CCCCC1)CCCCC2` has a reported RP-LC retention time of 842

`CN(C)CCCNC(=O)C1CCN(c2nc3ccc(-c4ccccc4F)nc3s2)CC1` has a reported RP-LC retention time of 649

`COc1ccc2[nH]c(C(=O)N3CCN(C(=O)c4ccco4)CC3)cc2c1` has a reported RP-LC retention time of 706

`CCN(CC)C(=O)Cn1ccc(NC(C)=O)nc1=O` has a reported RP-LC retention time of 602

###

Please provide measured RP-LC retention time for the entries that follow.
assay: gradient 5% acetonitrile 3 min, to 50% in 2 min, to 85% in 15 min, held 3 min, 100 µL/min; conditions: column: Zorbax Extend-C18 2.1 x 50 mm; eluents: water / acetonitrile, 0.1% formic acid
The figure you give is taken to be in s; do not add the unit.

O=C(O)C1CCc2sc(C(=O)N3CCCCCC3)cc2C1 (configuration not stated) has a reported RP-LC retention time of 746

`Cc1sc(-c2cc(C(F)(F)F)[nH]n2)cc1S(=O)(=O)N1CC=C(c2ccccc2)CC1` has a reported RP-LC retention time of 1190

`COCCNC(=O)N(C)CCc1noc(COc2ccc(Cl)cc2)n1` has a reported RP-LC retention time of 747

`Cc1sc2ccn(CC(C)C)c(=O)c2c1C(=O)NCCN1CCCCC1` has a reported RP-LC retention time of 639

`COCCNC(=O)c1nc(-c2ccnc(N3CCC(C)CC3)c2)no1` has a reported RP-LC retention time of 670

`CCc1ccc(S(=O)(=O)Nc2cccc(-c3nc4cccnc4s3)c2C)s1` has a reported RP-LC retention time of 942

`COc1ccc(CN2C=C(C(=O)OCc3noc(-c4cccc(OC)c4)n3)C(C)=NS2(=O)=O)cc1` has a reported RP-LC retention time of 1120
